Tested on: A549/ATCC NSCLC
Method: NCI-60 one-dose screen, 48 h (100 = growth as untreated, 0 = no growth, -100 = all killed)
Measurement parameters: 10 µM
This is part of a sample that, as a whole, favours compounds with a hit. Of some 83,000 tested, about 20% had one in any assay.
This listing pairs compounds with measured growth.
Just the number in %, nothing appended.

Give recorded growth with A549/ATCC NSCLC for the following compound: "COc1ccc2oc(-c3ccc(Cl)cc3)c(N3CCN(C)CC3)c2c1"
39.6

Give recorded growth with A549/ATCC NSCLC for the following compound: O=C1C(Cl)=C(Cl)C(Cl)(Cl)C(Cl)C1(Cl)Cl (stereo not given)
105
